# Tested on: RXF 393
# protocol_text: NCI tumour cell line growth inhibition, 48 h
The source made the active and inactive calls. No stated cut-off is given here; in the data, active = GI50 up to about 1.1 µM and inactive = higher. Bridge positions count the residues as written; N and C are the ends. Square brackets hold non-standard residues; d marks the D form. Peptide text beside a SMILES is read from it. * marks the point of attachment. Cbz = O=C(OCc1ccccc1)*; Dab = NCC[CH](N)C(=O)O; Bn = c1ccc(C*)cc1
parameter_measured: GI50

Before answering, review these 5 worked examples.
{"columns": ["molecule", "GI50"],
 "data": [
  ["COc1ccc2c([nH]c3c(O)c(-c4c(C)cc5c([nH]c6c(CC=C(C)C)c(OC)ccc65)c4O)c(C)cc32)c1CC=C(C)C", "> 100 µM (inactive)"],
  ["C=C1C[C@]23C[C@@]1(O)CC[C@H]2[C@@]12C=C[C@H](O)[C@@](C)(C(=O)O1)[C@H]2[C@@H]3C(=O)O", "> 100 µM (inactive)"],
  ["COCOc1c(C(O[Si](C)(C)C(C)(C)C)c2cnc(Sc3ccccc3)n2C)ccc(OC)c1OC (stereo unspecified)", "1.36 µM (inactive)"],
  ["CS(=O)(=O)c1ccc(C(=O)O[C@@H]2C(=O)N3CC[C@H]4OC(O)[C@@H]2[C@H]43)cc1 (stereo partly specified)", "> 100 µM (inactive)"],
  ["Cc1sc2nc(-c3cccc([N+](=O)[O-])c3)c(/C=N/N=C(N)N)n2c1C", "1.66 µM (inactive)"]
]}

Prompt: Any idea what GI50 was measured for Clc1ccc(C2ON=C(c3ccccc3)N2C23CC4CC(CC(C4)C2)C3)cc1 (stereo unspecified) ?
Completion: > 10 µM (inactive)

Prompt: For Cc1ccc(-c2cc(-c3cc(-c4ccc(C)cc4C)[nH]n3)[nH]n2)c(C)c1 then?
Completion: 14.4 µM (inactive)

Prompt: Now this one: C=C(C)C(=O)OC1C(C(C)CCCO)=C(CO)CC2OC(=O)C(=C)C21 (stereo unspecified)
Completion: 13.8 µM (inactive)

Prompt: What about this molecule? S=c1nc2c(c[nH]1)C1c3ccccc3C2c2ccccc21
Completion: 35.2 µM (inactive)

Prompt: Try this molecule too: Cc1cn(CCC(N)C(=O)O)c(=O)[nH]c1=O (stereo unspecified)
Completion: > 100 µM (inactive)

Prompt: Subsequent entry: Cn1cc(NC(=O)Nc2cc(C(=O)Nc3cc(C(=O)Nc4ccc5cc(S(=O)(=O)O)cc(S(=O)(=O)O)c5c4)n(C)c3)n(C)c2)cc1C(=O)Nc1cc(C(=O)Nc2ccc3cc(S(=O)(=O)O)cc(S(=O)(=O)O)c3c2)n(C)c1
Completion: > 100 µM (inactive)

Prompt: Same again, this time with c1ccc(N2N=C(c3ccco3)CC2c2ccco2)cc1 (stereo unspecified)
Completion: 52.4 µM (inactive)

Prompt: # repeat for CC1(C)CCc2cc3c(cc2O1)OCCC3=O
Completion: > 100 µM (inactive)

Prompt: Please answer likewise for O=C(OCCN=c1c2ccccc2ccc2ccccc12)c1cc([N+](=O)[O-])cc([N+](=O)[O-])c1
Completion: > 100 µM (inactive)

Prompt: Subsequent entry: N=c1oc2cc(O)c(O)cc2cc1C(N)=O
Completion: > 100 µM (inactive)

Prompt: Consider next the molecule CC(C)CC1NC(=O)C(Cc2ccccc2)NC(=O)C(Cc2ccccc2)NC(=O)C(NC(=O)C(Cc2ccc(OCc3ccccc3)cc2)NC(=O)OCc2ccccc2)CCNC1=O (stereo unspecified) (Cbz-Y(Bn)[Dab]FFL; lactam 2-C; configuration not given here) in the same way.
Completion: > 100 µM (inactive)
